# Test system: KB-V1
# Test Summary: Reversal of P-glycoprotein-mediated multidrug resistance assessed as ratio of taxol IC50 for drug-resistant human KB-V1 cells to taxol IC50 for human drug-sensitive KB-3-1 cells at 10 uM after 48 hrs by SRB method
# Assay type: cell-based
Recorded Ratio IC50, one value per entry.
Lab note: jot the number down without any unit.

Example entries begin here.
Compound: CC(=O)OC[C@@]12[C@@H](OC(C)=O)CC[C@@H](C)[C@]13OC(C)(C)[C@H](C[C@@H]2OC(=O)c1ccccc1)[C@H]3OC(C)=O
Metric Name: Ratio IC50
Data Value: 10
//
Compound: CC(=O)O[C@H]1[C@@H](OC(=O)c2ccco2)C[C@@H](C)[C@]23OC(C)(C)[C@H](C[C@H](OC(=O)c4ccccc4)[C@]12C)[C@H]3OC(=O)c1ccco1 [ORBICULIN F]
Metric Name: Ratio IC50
Data Value: 11
//
Compound: CC(=O)O[C@H]1C[C@@H](C)[C@]23OC(C)(C)[C@H](C[C@H](OC(=O)c4ccccc4)[C@]2(C)[C@H]1OC(C)=O)[C@H]3OC(C)=O
Metric Name: Ratio IC50
Data Value: 3.7
//
Compound: CC(=O)OC[C@]12[C@@H](OC(=O)c3ccccc3)C[C@@H]3[C@@H](OC(C)=O)[C@]1(OC3(C)C)[C@H](C)C[C@H](OC(=O)c1ccccc1)[C@@H]2OC(C)=O
Metric Name: Ratio IC50
Data Value: 3.9
//
Compound: CC(=O)O[C@H]1C[C@@H](C)[C@]23OC(C)(C)[C@H](C[C@H](OC(=O)c4ccccc4)[C@]2(C)[C@H]1OC(C)=O)[C@H]3OC(=O)c1ccccc1 [ORBICULIN A]
Metric Name: Ratio IC50
Data Value: 1.2

Prompt: Value lookup for Ratio IC50; key = CC(=O)O[C@H]1C[C@@H](C)[C@]23OC(C)(C)[C@H](C[C@H](OC(=O)c4ccccc4)[C@]2(C)[C@H]1OC(C)=O)[C@H]3OC(=O)c1ccco1 [ORBICULIN E]
Completion: 2.6

Prompt: # get_value(readout='Ratio IC50', item= CC(=O)O[C@H]1[C@@H](OC(=O)c2ccccc2)C[C@@H](C)[C@]23OC(C)(C)[C@H](C[C@H](OC(=O)c4ccccc4)[C@]12C)[C@H]3OC(=O)c1ccccc1 [ORBICULIN G] )
Completion: 143

====

# Test system: KB-V1
# Test Summary: Reversal of P-glycoprotein-mediated multidrug resistance assessed as ratio of adriamycin IC50 for drug-resistant human KB-V1 cells to adriamycin IC50 for human drug-sensitive KB-3-1 cells at 10 uM after 48 hrs by SRB method
# Format: cell-based
Ratio IC50 listing for selected compounds.
// return a plain number; no unit text

Past entries and their recorded results:
Compound: CC(=O)OC[C@@]12[C@@H](OC(C)=O)CC[C@@H](C)[C@]13OC(C)(C)[C@H](C[C@@H]2OC(=O)c1ccccc1)[C@H]3OC(C)=O
Data Value: 5.5
//
Compound: CC(=O)O[C@H]1[C@@H](OC(=O)c2ccco2)C[C@@H](C)[C@]23OC(C)(C)[C@H](C[C@H](OC(=O)c4ccccc4)[C@]12C)[C@H]3OC(=O)c1ccco1 [ORBICULIN F]
Data Value: 4.4
//
Compound: CC(=O)O[C@H]1[C@@H](OC(=O)c2ccccc2)C[C@@H](C)[C@]23OC(C)(C)[C@H](C[C@H](OC(=O)c4ccccc4)[C@]12C)[C@H]3OC(=O)c1ccccc1 [ORBICULIN G]
Data Value: 153
//
Compound: CC(=O)O[C@H]1C[C@@H](C)[C@]23OC(C)(C)[C@H](C[C@H](OC(=O)c4ccccc4)[C@]2(C)[C@H]1OC(C)=O)[C@H]3OC(C)=O
Data Value: 8.3
//
Compound: CC(=O)O[C@H]1C[C@@H](C)[C@]23OC(C)(C)[C@H](C[C@H](OC(=O)c4ccccc4)[C@]2(C)[C@H]1OC(C)=O)[C@H]3OC(=O)c1ccccc1 [ORBICULIN A]
Data Value: 3
//
Compound: CC(=O)O[C@H]1C[C@@H](C)[C@]23OC(C)(C)[C@H](C[C@H](OC(=O)c4ccccc4)[C@]2(C)[C@H]1OC(C)=O)[C@H]3OC(=O)c1ccco1 [ORBICULIN E]
Data Value: 1.8

For the next question, use this compound.
Prompt: For KB-V1, provide Ratio IC50 of "CC(=O)OC[C@]12[C@@H](OC(=O)c3ccccc3)C[C@@H]3[C@@H](OC(C)=O)[C@]1(OC3(C)C)[C@H](C)C[C@H](OC(=O)c1ccccc1)[C@@H]2OC(C)=O" please.
Completion: 1.4
